B1: Gamma-crystallin D, residues 90 to 170; numbered along this chain, P07320 (parent)
chain: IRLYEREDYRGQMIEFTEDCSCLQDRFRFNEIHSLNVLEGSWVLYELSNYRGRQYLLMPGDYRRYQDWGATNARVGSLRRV

Variants of: B1
method.summary: abundance fitness (aPCA) (normalised: wild type 0, dead -1); higher = more abundant; growth selection in yeast, the domain comes from the species named
assay.setup: Homo sapiens
Each record here notes measured abundance fitness.
Provide a numeric answer; units are not to be included.

// below: answered variants
R10N :: 0.077
S48F :: -0.124
Q54S :: 0.013

Q: Given Q24G , state its recorded abundance fitness.
Ans: 0.01
